biological target: Human UII receptor, 6D9 human rhabdomyosarcoma cells (Homo sapiens); construct: 6D9: isolated by dilution subcloning of RMS13 cells, ATCC® Number: CRL-2061; assay: Human UII Calcium Mobilization Assay; conditions: average value, FLIPR TETRA, read-out: Human UII Ca^+ Mobilization Average IC50
QUANTITY_KIND: IC50 (nM)
Kindly provide the numeric value in nM only, without the unit symbol.

COMPOUND | TESTED_TARGET | IC50 [nM]
COc1ccc([C@@H](CCCNC(=O)c2cncn2C)N2C(=O)c3cccc(N4CCN([C@H](C)c5ccccc5)CC4)c3C2=O)cc1OC | Human UII receptor, 6D9 human rhabdomyosarcoma cells (Homo sapiens) | 660
COc1ccc([C@@H](CCCNS(=O)(=O)c2cnoc2C)N2C(=O)c3cccc(N4CCN([C@H](C)c5ccccc5)CC4)c3C2=O)cc1OC | Human UII receptor, 6D9 human rhabdomyosarcoma cells (Homo sapiens) | 130
COc1ccc([C@@H](CCCNC(=O)C2CCCO2)N2C(=O)c3cccc(N4CCN([C@H](C)c5ccccc5)CC4)c3C2=O)cc1OC (some centres unmarked) | Human UII receptor, 6D9 human rhabdomyosarcoma cells (Homo sapiens) | 400
C=CCN1CCN(c2cccc3c2C(=O)N([C@H](CCCNS(=O)(=O)c2cccs2)c2ccc(OC)c(OC)c2)C3=O)CC1 | Human UII receptor, 6D9 human rhabdomyosarcoma cells (Homo sapiens) | 990
COc1ccc(C(CCCNS(=O)(=O)c2cc(C)oc2C)N2C(=O)c3cccc(N4CCN([C@H](C)c5ccccc5)CC4)c3C2=O)cc1OC (some centres unmarked) | Human UII receptor, 6D9 human rhabdomyosarcoma cells (Homo sapiens) | 2700

Determine reported IC50 for COc1ccc([C@@H](CCCNC(=O)C(C#N)C(C)=O)N2C(=O)c3cccc(N4CCN([C@H](C)c5ccccc5)CC4)c3C2=O)cc1OC (some centres unmarked) ; test system: Human UII receptor, 6D9 human rhabdomyosarcoma cells (Homo sapiens). 160

Would you please give the reported IC50 of COc1ccc([C@@H](CCCNC(=O)c2c(C)nn(C)c2C)N2C(=O)c3cccc(N4CCN([C@H](C)c5ccccc5)CC4)c3C2=O)cc1OC with Human UII receptor, 6D9 human rhabdomyosarcoma cells (Homo sapiens)? 1100

###

Biological target: Human UII receptor, 6D9 human rhabdomyosarcoma cells (Homo sapiens, UniProt Q9UKP6)
Construct: 6D9: isolated by dilution subcloning of RMS13 cells, ATCC® Number: CRL-2061
Sequence (Q9UKP6 1-389): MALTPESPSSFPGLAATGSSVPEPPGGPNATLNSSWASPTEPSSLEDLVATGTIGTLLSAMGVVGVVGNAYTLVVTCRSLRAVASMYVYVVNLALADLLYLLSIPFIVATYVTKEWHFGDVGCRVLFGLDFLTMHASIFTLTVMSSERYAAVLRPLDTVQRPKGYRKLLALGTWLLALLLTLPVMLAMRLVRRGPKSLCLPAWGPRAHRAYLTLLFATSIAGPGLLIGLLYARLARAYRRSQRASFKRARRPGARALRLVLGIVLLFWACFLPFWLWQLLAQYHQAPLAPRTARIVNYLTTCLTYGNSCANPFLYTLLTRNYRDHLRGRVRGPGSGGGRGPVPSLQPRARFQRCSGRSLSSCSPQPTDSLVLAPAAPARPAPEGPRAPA
Experiment: Human UII Calcium Mobilization Assay
Conditions: average value, FLIPR TETRA, read-out: Human UII Ca^+ Mobilization Average IC50
QUANTITY_KIND: pIC50
Field pIC50 (float): negative decimal logarithm of the concentration in molar.

COMPOUND | pIC50
CCC(=O)NCCC[C@H](c1ccc(OC)c(OC)c1)N1C(=O)c2cccc(N3CCN([C@H](C)c4ccccc4)CC3)c2C1=O | 6.24
COc1ccc(C(CCCNS(=O)(=O)c2cn(C)c(C)n2)N2C(=O)c3cccc(N4CCN([C@H](C)c5ccccc5)CC4)c3C2=O)cc1OC (stereo partly drawn) | 6.33
COc1ccc([C@@H](CCCNC(=O)[C@H]2CCCN2C(C)=O)N2C(=O)c3cccc(N4CCN([C@H](C)c5ccccc5)CC4)c3C2=O)cc1OC | 6.12
COc1ccc([C@@H](CCCNS(=O)(=O)c2cnn(C)c2C)N2C(=O)c3cccc(N4CCN([C@H](C)c5ccccc5)CC4)c3C2=O)cc1OC | 6.47
COc1ccc(C(CCCNS(=O)(=O)c2ccccc2)N2C(=O)c3cccc(N4CCN([C@H](C)c5ccccc5)CC4)c3C2=O)cc1OC (stereo partly drawn) | 6.12

Now take the following compound into account.
Please report the measured pIC50 for COc1ccc([C@@H](CCCNS(=O)(=O)c2cccs2)N2C(=O)c3cccc(N4CCN(C5CCCC5)CC4)c3C2=O)cc1OC 6.28

Cited source for all entries: patent US8193191B2
